- System: Plutella xylostella
- assay.protocol: Insecticidal activity against third-instar larvae of Plutella xylostella (diamondback moth) in cabbage leaf disk after 4 to 7 days by leaf dipping method
- Type: functional, organism-based
measured.attribute: EC50
// return the numeric value with its unit appended

Here are 2 molecules together with their reported answers.
Cc1c(Cl)cccc1NC(=O)c1cccc(I)c1C(=O)NC(C)C: 3 mgAi/L
Cc1ccc(Cl)cc1NC(=O)c1cccc(I)c1C(=O)NC(C)C: 3 mgAi/L

API: the following record is the query input.
INPUT: Record request: EC50 value, item O=C(NC(=O)c1c(F)cccc1F)Nc1ccc(Oc2ccc(C(F)(F)F)cc2Cl)cc1F [FLUFENOXURON]
OUTPUT: 0.05 mgAi/L
